Numbers sourced from the supplement of paper PMC10567573.

B1: KRT13 (parent)
chain: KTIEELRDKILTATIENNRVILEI

# Variants of: B1
# experimental.protocol: protein stability index of a GFP-peptide fusion (GPS, HEK-293T) (PSI 1-6); higher = more stable;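 note: lentivirally expressed fusions sorted by FACS into six bins by GFP to DsRed ratio, PSI derived from sequencing read proportions per bin multiplied by bin number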
# protocol.conditions: c terminus: a fixed tail appended
Please map values of protein stability index to classes as shown: low end = under 2, middle = from 2 up to 3, high end = 3 and over

Reference set (5 entries):
INSERT INTO measurements (sequence_content, assigned_category) VALUES
  ('KTIEELRDKILTATIENNRVILEL [I24L]', 'high end'),
  ('KTIEELRDKYLTATIENNRVILEI [I10Y]', 'high end'),
  ('KTIEELRDKILTATIEVNRVILEI [N17V]', 'low end'),
  ('KTIEELRDKILTATIENNRVIREI [L22R]', 'middle'),
  ('KTIEYLRDKILTATIENNRVILEI [E5Y]', 'high end');

## Task Lab note: sort KTIEELADKILTATIENNRVILEI [R7A] into the matching protein stability index band.
## Result middle

## Task Please classify: KTIEELRDKILTATIENNRVILRI [E23R]
## Result middle

## Task Class (by measured protein stability index) for KTIEELRDKILTATIENNRVQLEI [I21Q]
## Result low end

## Task For this variant, which bin applies? KTIEELRDKILTLTIENNRVILEI [A13L]
## Result middle

## Task Lab note: sort KTIEELRDKILTATIDNNRVILEI [E16D] into the matching protein stability index band.
## Result high end

## Task // bin(item) where item = KTIEELRDKHLTATIENNRVILEI [I10H]
## Result middle

## Task Could you tell me which band KTIEEGRDKILTATIENNRVILEI [L6G] belongs to?
## Result low end

## Task Band for the recorded protein stability index of KTIEELRDKILTAHIENNRVILEI [T14H] ?
## Result middle
